Recorded pIC50, one value per entry.
Tested Target: human PDHK2 (hPDHK2) (Homo sapiens (Human), UniProt Q15119)
Experiment Summary: Inhibitory action of PDHK activity in vitro (kinase reaction, residual PDH activity measured)
Format: biochemical
Experimental Setup: PDHK inhibitory activity, class symbol of IC50
Procedure: In the case of human PDHK2 (hPDHK2, Genbank Accession No. NM_002611), modified hPDHK2 cDNA wherein FLAG-Tag sequence is added to the N terminal by a polymerase linkage reaction was prepared based on hPDHK2 cDNA clone (pReceiver-M01/PDK2-GeneCopoeia), and cloned into a vector (pET17b-Novagen). The recombinant construct was transformed into Escherichia coli (DH5α-TOYOBO). The recombinant clones were identified, plasmid DNA was isolated and subjected to the DNA sequence analysis. […]
pIC50: −log10 of the molar value.

{"columns": ["Molecule", "Tested Target", "Measured Property", "Observed Value"],
 "data": [
  ["CC(C)(C)OC(=O)N1CCN(c2ccc3c(c2)C(O)(C(F)(F)F)c2ccccc2-3)CC1 (stereo not shown) [compound 163]", "human PDHK2 (hPDHK2) (Homo sapiens (Human), UniProt Q15119)", "pIC50", "6.00 to 7.00"]
]}

Now look at this one.
Enquiry: Sample OCCCCCOc1cc(-c2cncnc2)c2c(c1)C(O)(C(F)(F)F)c1ccccc1-2 (stereo not shown) [compound 406] — what was its pIC50?
Return: > 7.00

* * *

Tested Target: human PDHK2 (hPDHK2) (Homo sapiens (Human), UniProt Q15119)
Experiment Summary: Inhibitory action of PDHK activity in vitro (kinase reaction, residual PDH activity measured)
Type: biochemical
Experimental Setup: PDHK inhibitory activity, class symbol of IC50
Recorded IC50, one value per entry.

{"columns": ["Molecule", "Measured Property", "Observed Value"],
 "data": [
  ["CN(CCOc1cc(-c2cnn(C)c2)c2c(c1)C(O)(C(F)(F)F)c1ccccc1-2)C(=O)CO (stereo not drawn) [compound 425]", "IC50", "< 100 nM"]
]}

Enquiry: Sample O=C(O)Cn1cc(-c2cc(Cl)c3c(c2)C(O)(C(F)(F)F)c2ccccc2-3)cn1 (stereo not drawn) [compound 516] — what was its IC50?
Return: 100 to 1000 nM

Enquiry: Sample CC(C)n1cc(-c2cccc3c2-c2ccccc2C3(O)C(F)(F)F)cn1 (stereo not drawn) [compound 465] — what was its IC50?
Return: < 100 nM

Enquiry: Sample N#Cc1cccc2c1-c1ccccc1C2(O)C(F)(F)F (stereo not drawn) [compound 49] — what was its IC50?
Return: > 1000 nM

Enquiry: Sample Cn1cc(-c2cc(OCC(=O)O)cc3c2-c2ccccc2C3(O)C(F)(F)F)cn1 (stereo not drawn) [compound 358] — what was its IC50?
Return: < 100 nM

Enquiry: Sample COc1cc(-c2cnn(CCCC(=O)O)c2)c2c(c1)C(O)(C(F)(F)F)c1ccccc1-2 (single isomer, unassigned) [compound 589] — what was its IC50?
Return: < 100 nM

Enquiry: Sample OC1(C(F)(F)F)c2ccccc2-c2ccc(-c3ccc(F)cc3)cc21 (stereo not drawn) [compound 171] — what was its IC50?
Return: 100 to 1000 nM

Enquiry: Sample COc1ccccc1-c1ccc2c(c1)C(O)(C(F)(F)F)c1ccccc1-2 (stereo not drawn) [compound 170] — what was its IC50?
Return: > 1000 nM

Enquiry: Sample Cc1cc(C)c2c(c1)C(O)(C(F)(F)F)c1ccccc1-2 (stereo not drawn) [compound 18] — what was its IC50?
Return: 100 to 1000 nM

Enquiry: Sample CC(=O)N(C)CC(C)Oc1ccc2c(c1)C(O)(C(F)(F)F)c1ccccc1-2 (stereo not drawn) [compound 380] — what was its IC50?
Return: > 1000 nM

Enquiry: Sample O=C(O)c1cccc(-c2ccc3c(c2)C(O)(C(F)(F)F)c2ccccc2-3)c1 (stereo not drawn) [compound 155] — what was its IC50?
Return: 100 to 1000 nM

Enquiry: Sample OC1(C(F)(F)F)c2ccccc2-c2c(-c3ccccc3)cccc21 (stereo not drawn) [compound 126] — what was its IC50?
Return: > 1000 nM

Enquiry: Sample OC1(C(F)(F)F)c2ccccc2-c2c(-c3cnn(C45CC6CC(CC(C6)C4)C5)c3)cccc21 (stereo not drawn) [compound 522] — what was its IC50?
Return: < 100 nM

Enquiry: Sample O=C(O)c1ccc2c(c1)C(O)(C(F)(F)F)c1ccccc1-2 (stereo not drawn) [compound 24] — what was its IC50?
Return: > 1000 nM

Enquiry: Sample OC1(C(F)(F)F)c2ccccc2-c2ccc(F)cc21 (stereo not drawn) [compound 4] — what was its IC50?
Return: > 1000 nM

Enquiry: Sample Cc1cc(-c2cnn(CCO)c2)c2c(c1)[C@@](O)(C(F)(F)F)c1ccccc1-2 (stereo in doubt) [compound 529] — what was its IC50?
Return: < 100 nM

Enquiry: Sample CCOc1ccc2c(c1)C(O)(C(F)(F)F)c1ccccc1-2 (stereo not drawn) [compound 89] — what was its IC50?
Return: > 1000 nM
